experiment: chemical genetic growth profiling, strain panel (AID 1159580);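 note: tested at 20 µM; growth read once vehicle control cultures reached saturation at 30 °C; 1 = growth at the plate median or of vehicle wells; lower values mean less growth of the strain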; settings: S. cerevisiae deletion strains, growth OD, locus YML094W, strain GIM5, active compounds read low
About 2,000 (36%) of roughly 5,500 compounds were called active. Inconclusive results (about 18%) are left out. The list shows a part of the results.
experimental-endpoint: normalized growth
# respond with the number and nothing more

CCCn1c(=O)c(C#N)cn(-c2ccc(Cl)cc2)c1=O: 0.963
N#Cc1c(N)oc(-c2ccco2)c1-c1ccco1: 0.875
Clc1cccc(NC2=NCCS2)c1Cl: 1.03
c1ccc(-c2cc3c(ccc4nonc43)nn2)cc1: 0.935
Cc1onc(-c2c(F)cccc2Cl)c1C(=O)c1ccc(F)cc1: 0.972

What the record says about O=C(c1ccccc1)c1cc2c(cc1Br)OCCO2 : normalized growth is 0.852

The molecule Cc1onc(-c2c(Cl)cccc2Cl)c1C(=O)Oc1ccc(Cl)c(Cl)c1 showed normalized growth equal to 0.998

Field normalized growth (entry CC(=O)c1ccc(-c2cccs2)s1 ) reads 0.887

normalized growth measured on O=C1CCC(c2cccs2)=NN1 = 1

# normalized growth of Cc1onc(-c2ccccc2)c1NC(=O)Nc1c(Cl)cccc1Cl = 0.949

// normalized growth value for Cc1ccc(NC(=S)NCCO)c(C)c1 : 1.01
